From: PubChem BioAssay (EPA / NIEHS)

# Measured On: zebrafish Thyroid Hormone Receptor beta (TRb), thrb (gene 30607)
# Procedure Summary: ATG_zfTRb_XSP2: Attagene TRANS-FACTORIAL Multi-Species (XSP1) HepG2 Assay for zebrafish Thyroid Hormone Receptor beta (TRb) (AID 2283836)
Results filed as inconclusive are left out. Active and inactive are the calls of the source. How the source made its calls: active means hit-call score of the fitted dose curve at least 0.9, where 1 is the maximum; inconclusive means response in the unintended direction; inactive means score below 0.9.
Measure: outcome

compound="CCCCC(CC)COC(=O)c1ccccc1C(=O)OCC(CC)CCCC (centres undefined)" measured_on="zebrafish Thyroid Hormone Receptor beta (TRb), thrb (gene 30607)" result=inactive
compound=COC(=O)N(OC)c1ccccc1COc1ccn(-c2ccc(Cl)cc2)n1 measured_on="zebrafish Thyroid Hormone Receptor beta (TRb), thrb (gene 30607)" result=inactive
compound="C#CCOS(=O)OC1CCCCC1Oc1ccc(C(C)(C)C)cc1 (centres undefined)" measured_on="zebrafish Thyroid Hormone Receptor beta (TRb), thrb (gene 30607)" result=inactive
compound=CCCCOC(=O)c1ccccc1C(=O)OCCCC measured_on="zebrafish Thyroid Hormone Receptor beta (TRb), thrb (gene 30607)" result=inactive

###

# Procedure Summary: IUF_NPC4_neurite_length_120hr: Leibniz Research Institute for Environmental Medicine (IUF) 120-hour Neuronal Morphology Assay for Neurite Length (NPC4) (AID 2284302)
The source made the active and inactive calls. The calls were made as follows: active = hit-call score of the fitted dose curve at least 0.9, where 1 is the maximum; inactive = score below 0.9.
Pick one and only one: TRUE = active, FALSE = inactive

Q: How was CCCCC(CC)COC(=O)c1ccccc1C(=O)OCC(CC)CCCC (stereo not drawn) classified in this test?
Result: FALSE

Q: How was N#Cc1nn(-c2c(Cl)cc(C(F)(F)F)cc2Cl)c(N)c1S(=O)C(F)(F)F (stereo not drawn) classified in this test?
Result: TRUE

Q: How was CCCCOC(=O)c1ccccc1C(=O)OCCCC classified in this test?
Result: FALSE

Q: How was CCOc1cc(Oc2ccc(C(F)(F)F)cc2Cl)ccc1[N+](=O)[O-] classified in this test?
Result: FALSE

Q: How was COP(N)(=O)SC (stereo not drawn) classified in this test?
Result: FALSE

Q: How was COP(=S)(OC)Oc1nc(Cl)c(Cl)cc1Cl classified in this test?
Result: FALSE

Q: How was C=CC1(C)OC(=O)N(c2cc(Cl)cc(Cl)c2)C1=O (stereo not drawn) classified in this test?
Result: FALSE

Q: How was CC(C)(C)c1ccc(CSc2cnn(C(C)(C)C)c(=O)c2Cl)cc1 classified in this test?
Result: FALSE

###

# Procedure Summary: CCTE_Shafer_MEA_acute_burst_duration_mean: CCTE's Neural Acute Assay for Mean Burst Duration, Shafer Lab (AID 2284014);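 further: hits are decreases in mean burst duration relative to DMSO controls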
The source made the active and inactive calls. How the source made its calls: active means hit-call score of the fitted dose curve at least 0.9, where 1 is the maximum; inactive means score below 0.9.
Pick one and only one: active, inactive

Q: How was C#CCOS(=O)OC1CCCCC1Oc1ccc(C(C)(C)C)cc1 (stereo not drawn) classified in this test?
Result: inactive

Q: How was C=CCC1=C(C)[C@@H](OC(=O)[C@@H]2[C@@H](C=C(C)C)C2(C)C)CC1=O classified in this test?
Result: inactive

Q: How was N#Cc1nn(-c2c(Cl)cc(C(F)(F)F)cc2Cl)c(N)c1S(=O)C(F)(F)F (stereo not drawn) classified in this test?
Result: inactive

Q: How was CON(C)C(=O)Nc1ccc(Cl)c(Cl)c1 classified in this test?
Result: inactive

Q: How was C=CCC1=C(C)C(OC(=O)C2C(C=C(C)C)C2(C)C)CC1=O (stereo not drawn) classified in this test?
Result: inactive

Q: How was CO/C=C(/C(=O)OC)c1ccccc1Oc1cc(Oc2ccccc2C#N)ncn1 classified in this test?
Result: inactive

Q: How was CCCCNC(=O)OCC#CI classified in this test?
Result: inactive

Q: How was OC(c1ccc(Cl)cc1)(c1cncnc1)c1ccccc1Cl (stereo not drawn) classified in this test?
Result: active

Q: How was CS/C(C)=N/OC(=O)N(C)SN(C)C(=O)O/N=C(\C)SC classified in this test?
Result: inactive

Q: How was Cc1c(F)c(F)c(COC(=O)C2C(/C=C(\Cl)C(F)(F)F)C2(C)C)c(F)c1F (stereo not drawn) classified in this test?
Result: inactive

Q: How was COc1ccc(C(c2ccc(OC)cc2)C(Cl)(Cl)Cl)cc1 classified in this test?
Result: inactive

Q: How was Cc1ccc(-c2c(Cl)nc(C#N)n2S(=O)(=O)N(C)C)cc1 classified in this test?
Result: inactive

Q: How was N#CC(CCc1ccc(Cl)cc1)(Cn1cncn1)c1ccccc1 (stereo not drawn) classified in this test?
Result: inactive

###

# Read-out: growth arrest and DNA damage 45 (GADD45A), GADD45A (gene 1647)
# Procedure Summary: LTEA_HepaRG_GADD45A: Life Technologies and Expression Analysis (LTEA) Assay for growth arrest and DNA damage 45 (GADD45A) using HepaRG (AID 2283458)
# Assay Setup: mRNA level, 48 h; actives raise or lower the signal
Calls of active or inactive are those of the source. The calls were made as follows: active = hit-call score of the fitted dose curve at least 0.9, where 1 is the maximum; inactive = score below 0.9.
Pick one and only one: yes = active, no = inactive

Q: How was CN(C)C(=S)SSC(=S)N(C)C classified in this test?
Result: no

Q: How was O=C(O)COc1nc(Cl)c(Cl)cc1Cl classified in this test?
Result: no

Q: How was CC(C)C1(C)N=C(c2nc3ccccc3cc2C(=O)O)NC1=O (configuration not stated) classified in this test?
Result: no

Q: How was CC(C)Oc1cc(-n2nc(C(C)(C)C)oc2=O)c(Cl)cc1Cl classified in this test?
Result: no

Q: How was OC(c1ccc(Cl)cc1)(c1cncnc1)c1ccccc1Cl (configuration not stated) classified in this test?
Result: yes

Q: How was CNC(=S)S classified in this test?
Result: no

Q: How was N#CC(CCc1ccc(Cl)cc1)(Cn1cncn1)c1ccccc1 (configuration not stated) classified in this test?
Result: yes

###

# Read-out: Tissue Factor, F3 (gene 2152)
# Procedure Summary: BSK_LPS_TissueFactor: BioMAP Diversity Plus: LPS Assay for Tissue Factor Biomarker Activity (AID 2283084)
# Assay Setup: primary human HUVEC with PBMC; actives raise or lower the signal
The source made the active and inactive calls. Rule for the calls: active = hit-call score of the fitted dose curve at least 0.9, where 1 is the maximum; inactive = score below 0.9.
Pick one and only one: active, inactive

Q: How was O=C(O)COc1nc(Cl)c(Cl)cc1Cl classified in this test?
Result: inactive

Q: How was COc1nc(C)nc(NC(=O)NS(=O)(=O)c2ccccc2Cl)n1 classified in this test?
Result: inactive

Q: How was Fc1ccc(Oc2ccnc3cc(Cl)cc(Cl)c23)cc1 classified in this test?
Result: active

Q: How was COC(=O)C(C)Oc1ccc(Oc2ccc(Cl)cc2Cl)cc1 (stereo unspecified) classified in this test?
Result: inactive

Q: How was CCc1nn(C)c(C(=O)NCc2ccc(C(C)(C)C)cc2)c1Cl classified in this test?
Result: active

Q: How was CCNc1nc(Cl)nc(NC(C)C)n1 classified in this test?
Result: inactive

###

# Procedure Summary: APR_HepG2_CellCycleArrest_24hr: Apredica 24-hour HepG2 Assay for Cell Cycle Arrest (AID 2282905);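 further: cell cycle arrest scored as ratio of 2N to 4N nuclear DNA content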
# Assay Setup: imaging, actives raise or lower the signal
# Description: APR_HepG2_24hr is a cell-based, multiplexed-readout assay that uses HepG2, a human liver cell line, with measurements taken at 24 hours after chemical dosing in a 384-well plate.APR_HepG2_CellCycleArrest_24hr is one of 10 assay component(s) measured or calculated from the APR_HepG2_24hr assay. […] This assay endpoint, APR_HepG2_CellCycleArrest_24hr, was analyzed with bidirectional fitting relative to DMSO as the negative control and baseline of activity. […]
The source made the active and inactive calls. Rule for the calls: active = hit-call score of the fitted dose curve at least 0.9, where 1 is the maximum; inactive = score below 0.9.
Pick one and only one: active, inactive

Q: How was CON(C)C(=O)Nc1ccc(Cl)c(Cl)c1 classified in this test?
Result: active

Q: How was COc1cnc(OC)n2nc(NS(=O)(=O)c3c(OCC(F)F)cccc3C(F)(F)F)nc12 classified in this test?
Result: inactive

Q: How was Cc1c(F)c(F)c(COC(=O)C2C(/C=C(\Cl)C(F)(F)F)C2(C)C)c(F)c1F (stereo unspecified) classified in this test?
Result: inactive

Q: How was C#CCOS(=O)OC1CCCCC1Oc1ccc(C(C)(C)C)cc1 (stereo unspecified) classified in this test?
Result: active

Q: How was C=CCC1=C(C)C(OC(=O)C2C(C=C(C)C)C2(C)C)CC1=O (stereo unspecified) classified in this test?
Result: inactive

Q: How was CCOC(=O)CC(SP(=S)(OC)OC)C(=O)OCC (stereo unspecified) classified in this test?
Result: inactive

###

# Procedure Summary: ACEA_ER_AUC_viability: ACEA Biosciences xCELLigence Real-Time Cell Analysis on Estrogen Receptor Agonism for Viability (AID 2283782);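 further: continuous compound exposure with impedance area under curve over 80 h; hit means loss of impedance signal meaning reduced cell growth or viability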
Records with an inconclusive call do not appear. Activity calls are given as the source filed them. Rule for the calls: active = hit-call score of the fitted dose curve at least 0.9, where 1 is the maximum; inconclusive = response in the unintended direction; inactive = score below 0.9.
Pick one and only one: yes for active, no for inactive

Q: How was CC(C)Oc1cc(-n2nc(C(C)(C)C)oc2=O)c(Cl)cc1Cl classified in this test?
Result: yes

Q: How was COC(=O)c1ccccc1C(=O)OC classified in this test?
Result: no

Q: How was COC(=O)N(OC)c1ccccc1COc1ccn(-c2ccc(Cl)cc2)n1 classified in this test?
Result: yes

Q: How was Oc1ccccc1-c1ccccc1 classified in this test?
Result: yes

Q: How was CCNc1nc(Cl)nc(NC(C)C)n1 classified in this test?
Result: no

Q: How was COc1ccc(C(c2ccc(OC)cc2)C(Cl)(Cl)Cl)cc1 classified in this test?
Result: yes

Q: How was OC(c1ccc(Cl)cc1)(c1cncnc1)c1ccccc1Cl (stereo unspecified) classified in this test?
Result: no

Q: How was CCOC(=O)C(Cl)Cc1cc(-n2nc(C)n(C(F)F)c2=O)c(F)cc1Cl (stereo unspecified) classified in this test?
Result: no

Q: How was CC1COC(Cn2cncn2)(c2ccc(Oc3ccc(Cl)cc3)cc2Cl)O1 (stereo unspecified) classified in this test?
Result: yes

Q: How was C=CC1(C)OC(=O)N(c2cc(Cl)cc(Cl)c2)C1=O (stereo unspecified) classified in this test?
Result: no

Q: How was Fc1ccc(Oc2ccnc3cc(Cl)cc(Cl)c23)cc1 classified in this test?
Result: yes

Q: How was CCON=C(CC)C1=C(O)CC(c2c(C)cc(C)cc2C)CC1=O (stereo unspecified) classified in this test?
Result: no

Q: How was CNC(=S)S classified in this test?
Result: no

Q: How was CCCCNC(=O)OCC#CI classified in this test?
Result: yes

Q: How was N#Cc1nn(-c2c(Cl)cc(C(F)(F)F)cc2Cl)c(N)c1S(=O)C(F)(F)F (stereo unspecified) classified in this test?
Result: yes

Q: How was COP(=S)(OC)Oc1nc(Cl)c(Cl)cc1Cl classified in this test?
Result: yes
